Catalogue of CC50 readings, one per entry.
Assay: in vitro
Settings: African green monkey

// known answers, use as guide
> print(dat)
                                   compound  observation.type   readout.value
1  CCOC(=O)NC(=O)c1ccsc1NC(=O)c1cc(C)nc2ccccc12 [Compound 122]              CC50      > 50 µg/mL
2  CN1CCN(C(=O)c2ccsc2NC(=O)c2nc3ccccc3s2)CC1 [Compound 225]              CC50  25 to 50 µg/mL
3  O=C(NC(=O)c1ccsc1NC(=O)c1nc2cnccc2s1)OCc1ccccc1 [Compound 101]              CC50      > 50 µg/mL
4  CC1CCN(C(=O)c2ccsc2NC(=O)c2nc3ccccc3s2)CC1 [Compound 260]              CC50  25 to 50 µg/mL

Shift focus to the following entry.
Name the recorded CC50 of the compound listed here: COC(=O)COC(=O)NC(=O)c1ccsc1NC(=O)c1nc2cnccc2s1 [Compound 431]
25 to 50 µg/mL
